assay_explanation: log P by HPLC on reversed-phase column (C18), EEC Directive 79/831 Annex V.A8
Format: physicochemical
condition_context: logP Method A
The threshold is inclusive: logP of exactly 4 counts as MET; values below receive NOT MET.

molecule: Cc1nc2ccccc2cc1Oc1cccc(F)c1[N+](=O)[O-] [Va.06]
assigned_category: NOT MET

-- ask Hello, I need to know if Cc1ccc(Oc2nc3ccc(F)c(F)c3nc2C)c(Br)c1 [IIb.09] has measured logP not below 4. Thanks!
-- reply MET

-- ask Hello, I need to know if C[Si](C)(Cc1ccccc1)c1ccccc1O [IXa.06] has measured logP not below 4. Thanks!
-- reply MET

-- ask Hello, I need to know if Cc1nc2c(F)c(F)ccc2cc1Oc1cccc(F)c1N [IVa.06] has measured logP not below 4. Thanks!
-- reply NOT MET

-- ask Hello, I need to know if N#Cc1cc(Br)c(Oc2cnc3c(F)c(F)ccc3n2)cc1F [IIb.19] has measured logP not below 4. Thanks!
-- reply NOT MET

-- ask Hello, I need to know if Cc1nc2c(F)c(F)ccc2nc1Oc1c(Cl)cccc1Br [IIb.05] has measured logP not below 4. Thanks!
-- reply MET

-- ask Hello, I need to know if C[Si](C)(c1ccccc1)c1ccccc1CBr [XIa.03] has measured logP not below 4. Thanks!
-- reply MET

-- ask Hello, I need to know if CSc1nc2ccccc2cc1Oc1cccc(F)c1 [VIIa.03] has measured logP not below 4. Thanks!
-- reply MET

* * *

assay_explanation: log P by HPLC on reversed-phase column (C18), EEC Directive 79/831 Annex V.A8
Assay type: physicochemical
condition_context: Method A: 40° C., 0.1% aqueous formic acid and acetonitrile
quantity_measured: logP
One number for each entry.

Give logP for all compounds that follow.
1. C[Si](C)(O)c1c(F)cccc1Oc1cnc2ccnn2c1 [I.121]
2. C[Si](C)(O)c1ccccc1Oc1cnc2c(F)c(F)ccc2n1 [I.081]
3. Cc1nc2c(F)c(F)ccc2nc1Oc1ccc(F)cc1[Si](C)(C)O [I.098]
4. C[Si](C)(O)c1ccccc1Oc1cnc2ccccc2c1 [I.002]

-- reply
1. 2.07
2. 3.23
3. 3.63
4. 2.82

Give logP for all compounds that follow.
1. CC[Si](C)(C)c1c(C#N)cccc1Oc1cc2ccc(F)c(F)c2nc1C [I.039]
2. C[Si](C)(C)c1c(F)cccc1[S+]([O-])c1cnc2ccccc2c1 (centres unmarked) [I.132]

-- reply
5.22
3.63

Give logP for all compounds that follow.
1. Cc1nc2ccccc2cc1Nc1ccc(F)cc1[Si](C)(C)C [I.055]
2. Cc1nc2c(F)c(F)ccc2nc1Oc1cccc(F)c1[Si](C)(C)C [I.088]
3. C[Si](C)(C)c1c(F)cccc1Oc1cnc2sccc2c1 [I.120]
4. Cc1nc2ccccc2cc1Nc1ccccc1[Si](C)(C)C [I.054]

-- reply
1. 2.63
2. 5.65
3. 5.45
4. 2.46

* * *

assay_explanation: log P by HPLC on reversed-phase column (C18), EEC Directive 79/831 Annex V.A8
Assay type: physicochemical
condition_context: reversed-phase HPLC column (C18), logP Method A
The threshold is inclusive: chromatographic logP of exactly 3 counts as true; values below receive false.

Answered examples (4):
compound: [O-][S+](c1cccc(F)c1)c1cnc2ccccc2c1 (centres unmarked) [VII.04A]
assigned_category: false
--
compound: C[Si](C)(c1ccc(Cl)cc1)c1ccccc1CBr [XIa.06]
assigned_category: true
--
compound: O=Cc1cccc(Oc2cnc3c(F)c(F)ccc3n2)c1Br [II.01B]
assigned_category: true
--
compound: OC(c1cccc(F)c1)c1cnc2ccccc2c1 (centres unmarked) [VII.01A]
assigned_category: false

-- ask Hello, I need to know if Cc1nc2c(F)c(F)ccc2cc1Oc1ccccc1[N+](=O)[O-] [Va.04] has measured chromatographic logP not below 3. Thanks!
-- reply true

Origin of measurements: patent US10683311B2
